target: Acetylcholinesterase (Homo sapiens, UniProt P22303); assay: Inhibition of human AChE using acetylthiocholine as substrate by Ellman's method
Sequence (P22303 whole entry): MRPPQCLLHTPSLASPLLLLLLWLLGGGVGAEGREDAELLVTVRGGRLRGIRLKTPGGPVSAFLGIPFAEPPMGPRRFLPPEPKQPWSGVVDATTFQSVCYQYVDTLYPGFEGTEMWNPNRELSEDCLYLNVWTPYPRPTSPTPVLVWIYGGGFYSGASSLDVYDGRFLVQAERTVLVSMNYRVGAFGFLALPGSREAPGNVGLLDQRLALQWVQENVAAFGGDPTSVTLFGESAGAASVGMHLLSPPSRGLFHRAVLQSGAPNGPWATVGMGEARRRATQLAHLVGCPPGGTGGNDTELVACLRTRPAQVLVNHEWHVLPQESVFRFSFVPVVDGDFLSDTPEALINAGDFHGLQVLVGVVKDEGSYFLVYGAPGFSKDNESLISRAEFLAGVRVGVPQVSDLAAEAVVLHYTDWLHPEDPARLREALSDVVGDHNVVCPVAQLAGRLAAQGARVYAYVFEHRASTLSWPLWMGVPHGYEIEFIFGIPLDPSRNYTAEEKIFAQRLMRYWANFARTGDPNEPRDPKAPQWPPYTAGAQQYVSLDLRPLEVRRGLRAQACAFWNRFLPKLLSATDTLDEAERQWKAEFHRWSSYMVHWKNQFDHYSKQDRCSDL
pIC50: −log10 of the molar value.
// values below are reported pIC50

>  <smiles.string>
Cc1cccc(C(=O)N2Cc3cc(NC(=O)c4cccc(Cl)c4)ccc3CC2=O)c1

>  <pIC50>
10.84

$$$$
>  <smiles.string>
O=C1Cc2ccc(NC(=O)c3cccc(Cl)c3)cc2CN1

>  <pIC50>
6.04

$$$$
>  <smiles.string>
Cc1cccc(C(=O)Nc2ccc3c(c2)CN(C(=O)c2cccc(C)c2)C(=O)C3)c1

>  <pIC50>
10.87

$$$$
>  <smiles.string>
COc1ccccc1C(=O)Nc1ccc2c(c1)CNC(=O)C2

>  <pIC50>
6.03

$$$$
>  <smiles.string>
O=C(Nc1ccc2c(c1)CN(C(=O)c1cccc(Cl)c1)C(=O)C2)c1cccc(Cl)c1

>  <pIC50>
10.85

$$$$

* * *

// values below are reported IC50
target: Acetylcholinesterase (Homo sapiens)

>  <smiles.string>
Cc1cccc(C(=O)N2Cc3cc(NC(=O)c4ccccc4)ccc3CC2=O)c1

>  <measured.target>
Acetylcholinesterase (Homo sapiens)

>  <IC50 / nM>
0.0262

$$$$
>  <smiles.string>
COc1ccccc1C(=O)Nc1ccc2c(c1)CN(C(=O)c1ccccc1OC)C(=O)C2

>  <measured.target>
Acetylcholinesterase (Homo sapiens)

>  <IC50 / nM>
0.0216

$$$$
>  <smiles.string>
COc1ccccc1C(=O)Nc1ccc2c(c1)CN(C(=O)c1cccc(C)c1)C(=O)C2

>  <measured.target>
Acetylcholinesterase (Homo sapiens)

>  <IC50 / nM>
0.0259

$$$$
>  <smiles.string>
O=C1Cc2ccc(NC(=O)c3ccccc3)cc2CN1

>  <measured.target>
Acetylcholinesterase (Homo sapiens)

>  <IC50 / nM>
1320

$$$$
>  <smiles.string>
O=C(Nc1ccc2c(c1)CN(C(=O)c1ccccc1)C(=O)C2)c1ccccc1

>  <measured.target>
Acetylcholinesterase (Homo sapiens)

>  <IC50 / nM>
0.51

$$$$
>  <smiles.string>
COc1ccccc1C(=O)N1Cc2cc(NC(=O)c3ccccc3)ccc2CC1=O

>  <measured.target>
Acetylcholinesterase (Homo sapiens)

>  <IC50 / nM>
0.0189

$$$$
>  <smiles.string>
O=C(Nc1ccc2c(c1)CN(C(=O)c1cccc(Cl)c1)C(=O)C2)c1ccccc1

>  <measured.target>
Acetylcholinesterase (Homo sapiens)

>  <IC50 / nM>
0.0284

$$$$
>  <smiles.string>
Nc1ccc2c(c1)CNC(=O)C2

>  <measured.target>
Acetylcholinesterase (Homo sapiens)

>  <IC50 / nM>
1360

$$$$
>  <smiles.string>
Cc1cccc(C(=O)Nc2ccc3c(c2)CN(C(=O)c2cccc(Cl)c2)C(=O)C3)c1

>  <measured.target>
Acetylcholinesterase (Homo sapiens)

>  <IC50 / nM>
0.0209

$$$$
>  <smiles.string>
Cc1cccc(C(=O)Nc2ccc3c(c2)CNC(=O)C3)c1

>  <measured.target>
Acetylcholinesterase (Homo sapiens)

>  <IC50 / nM>
791

$$$$
